- assay system: recombinant SrtA derived from S. aureus ATCC6538p (Staphylococcus aureus)
- Construct: made in house; host or cells: Escherichia coli
- Sequence (Q2FV99 whole entry): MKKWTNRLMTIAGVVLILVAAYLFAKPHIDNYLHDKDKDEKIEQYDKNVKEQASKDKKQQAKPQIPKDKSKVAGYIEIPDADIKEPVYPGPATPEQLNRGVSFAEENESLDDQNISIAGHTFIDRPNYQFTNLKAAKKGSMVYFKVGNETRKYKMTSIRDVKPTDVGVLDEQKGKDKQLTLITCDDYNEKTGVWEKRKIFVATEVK
- test name: SrtA inhibition assay (fluorescence, cleavage of dabcyl-LPETG-edans)
- Type: biochemical
- stated conditions: SrtA IC50, recombinant SrtA, 37 °C, 1 h; value in parentheses
assay metric: pIC50
Keep in mind that pIC50 stands for -log10 of concentration in molar terms.

[[record]]
compound = "CC(C)C1C(=O)N2c3ccccc3C3(O)CC(n4cnc5ccccc5c4=O)C(=O)N1C23 (stereo not drawn) [Compound 7, 14-epi-isochaetominine C]"
reported_result = 3.62

[[record]]
compound = "CCC1C(=O)N2c3ccccc3C3(O)CC(n4cnc5ccccc5c4=O)C(=O)N1C23 (centres unmarked)"
reported_result = 3.63

[[record]]
compound = "CCC(C)C1NC(=O)C(C(C)C)n2c1nc1ccc(OC)cc1c2=O (centres unmarked) [Compound 2, versicomide A]"
reported_result = 3.57

[[record]]
compound = "CCC(C)C1NC(=O)C(C(C)C)n2c1nc1c(c2=O)C=C(OC)C=CO1 (centres unmarked)"
reported_result = 3.71

[[record]]
compound = "CC(C)C1C(=O)N2c3ccccc3C3(O)CC(n4cnc5ccccc5c4=O)C(=O)N1C23 (centres unmarked) [Compound 6, isochaetominine C]"
reported_result = 3.66


Indicate the recorded pIC50 value for this compound: CC1C(=O)N2c3ccccc3C3(O)CC(n4cnc5ccccc5c4=O)C(=O)N1C23 (centres unmarked)
3.57

Return reported pIC50. Input compound: CC1CCC2C(C=CC(C)(O)C2(C)C(=O)CCO)C1 (centres unmarked)
3.84

Determine its reported pIC50: COc1ccc2cc3[n+](cc2c1OC)CCc1cc2c(cc1-3)OCO2 [Berberine chloride, berberine chloride, reference compound]
4.02
